test system: NCI-H460 lung; assay: NCI tumour cell line growth inhibition, 48 h
Assign TGI to each entry below.
Give the quantity in µM, number only.

compound Cc1ccc(CNc2c3ccccc3nc3cc(NC(=O)CCN4CCCC4)ccc23)cc1 , TGI observed: 1.25

Note to self: TGI recorded for OC(CCNCc1ccccc1)c1ccc2ccccc2c1 (stereo not given) was 35.1

Lab note: measured TGI of CC1(O)CC(=O)c2c(cc3ccc(-c4c5c(c(O)c6c(O)cccc46)C(=O)CC(C)(O)C5)c(O)c3c2O)C1 (stereo not given) was 5.64

Lab book: TGI of O=C(Cn1c(C(=O)/C=C/c2cccs2)nc2ccccc21)c1ccc(Cl)cc1 noted as 25.8
